These entries and their values trace back to PubChem BioAssay (NCI).

System: OVCAR-5 ovarian
Protocol description: NCI-60 one-dose screen, 48 h (100 = growth as untreated, 0 = no growth, -100 = all killed)
Reported conditions: 10 µM unless noted
About 83,000 compounds went through this panel and 20% of them were active in at least one assay; those are over-represented in the sample as a whole.
# growth annotations
Please reply with the bare figure in % and do not write the unit itself.

Check out these entries, answers already filled in.
O=C(NNc1nc2cc(F)cc(F)c2n2cccc12)c1cccnn1    46.3
CCN(CC)S(=O)(=O)c1ccc(-c2nc(C(Cl)Cl)nc3cc(C)nn23)cc1    41.5
O=C(CSc1nnc(-c2ccc(Cl)cc2)n1-c1ccccc1)Nc1ccc(Cl)cc1    37.3
Cn1cc(-c2nc(N)nnc2-c2c[nH]c3ccc(Br)cc23)c2cc(F)ccc21    110
O=C(/C=C/c1ccc(F)cc1)Nc1cccc2cccnc12    104
O=C(COc1ccc(/C=C2\C(=O)Nc3cc(Cl)ccc32)cc1)Nc1ccc(Cl)cc1    67.7

Now, please, on to the next compound.
Need growth of `CCN1CCN(c2ccc(NC(=O)Nc3ccc4c(ccn4-c4ccnc(C(=O)NC)c4)c3)cc2C(F)(F)F)CC1` , thanks.
89
